Listing of entries alongside the reported Kd.
Target: Scrib PDZ-1 domain (Homo sapiens)
Construct: ROC curves of DomPep prediction for the three Scrib PDZ-1/2/3 domains
Sequence (Q14160 728-815 limits assumed): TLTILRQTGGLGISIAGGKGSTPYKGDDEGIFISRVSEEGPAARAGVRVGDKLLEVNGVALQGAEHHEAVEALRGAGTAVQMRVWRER
Assay: In-solution fluorescence polarization binding of peptides to Scrib PDZ1
Conditions: Kd value of 100 µM applied as binding cutoff, NB without definition, read-out: Kd (µM) PDZ1
Residues, ends and D or L forms follow the SMILES beside them.

Report Kd for CC(C)C[C@H](NC(=O)[C@H](CO)NC(=O)[C@@H](NC(=O)[C@H](CC(=O)O)NC(=O)[C@@H](NC(=O)[C@H](CC(C)C)NC(=O)[C@H](CCC(N)=O)NC(=O)CNC(=O)[C@@H]1CCCN1C(=O)[C@@H](N)CCC(N)=O)C(C)C)[C@@H](C)O)C(=O)O [ANKS4B] (H-QPGQLVDTSL-OH) please.
> 100 µM

# get_value(readout='Kd', item= CSCC[C@H](NC(=O)CN)C(=O)N[C@@H](CCCCN)C(=O)N[C@@H](CCCNC(=N)N)C(=O)N[C@@H](CC(C)C)C(=O)N[C@H](C(=O)N[C@@H](CO)C(=O)N[C@H](C(=O)N[C@@H](CCCNC(=N)N)C(=O)N[C@@H](CC(C)C)C(=O)O)[C@@H](C)O)[C@@H](C)O [RPS6KA2] (H-GMKRLTSTRL-OH) )
> 100 µM

Any idea what its Kd is? The compound is CC(C)[C@H](NC(=O)[C@H](CO)NC(=O)[C@@H](NC(=O)[C@@H](NC(=O)[C@@H](NC(=O)[C@H](CCCNC(=N)N)NC(=O)[C@@H](NC(=O)[C@H](CCCCN)NC(=O)[C@H](C)NC(=O)[C@@H](N)CO)C(C)C)[C@@H](C)O)C(C)C)[C@@H](C)O)C(=O)O [RASL11B] (H-SAKVRTVTSV-OH)
> 100 µM
